// data source = ChEMBL document CHEMBL3301550

- Tested on: Plasmodium falciparum
- test.description: MMV: Modified 3H-Hyoxanthine uptake assay; RPMI 1640 (Invitrogen cat#23400-013) without Sodium Bicarbonate (NaHCO3).
- Type: functional, organism-based
- test.conditions: 3D7
property.measured: IC50

Solved entries:
Cc1ccc(-c2cc3c(nn2)-c2ccccc2C3=O)cc1: > 0.5 µM
CCCN(CCC)CC(O)COc1ccccc1C(=O)Nc1ccccc1 (stereo unspecified): 0.347 µM
CCN1CCN(Cc2ccc(NC(=O)c3cc4ccc5cccnc5c4[nH]3)cc2)CC1: 0.674 µM

For each entry beneath this line, provide reported IC50.
1. CCn1c(CN2CCN(Cc3ccccc3)CC2)nc2cc(NC(=O)c3cccs3)ccc21
2. COc1ccc2c(c1)OC(O)(C(F)(F)C(F)(F)F)CC2=O (stereo unspecified)
3. Fc1ccc2[nH]c3c(NCCCN4CCOCC4)ncnc3c2c1

Response line:
1. 0.186 µM
2. 0.204 µM
3. > 1 µM

* * *

Consider the following molecules; for each one, report its IC50.
- Test system: Plasmodium falciparum
- test.description: MMV: 3H-Hyoxanthine uptake assay; RPMI 1640 (Invitrogen cat#11875-093) with Sodium Bicarbonate (NaHCO3) […].
- Assay type: functional, organism-based
- test.conditions: 3D7
One number for each entry, in nM.

Solved entries:
COc1ccc(Br)cc1C1Nc2ccc3ccccc3c2C2=C1C(=O)CC(c1ccccc1)C2 (stereo unspecified): 783
CCN(CC)CCNc1ccnc2cc(Cl)ccc12: 46

For each entry beneath this line, provide reported IC50.
1. Cc1cc(NC(=O)C2c3ccccc3C(=O)N(CC(C)C)C2c2cccs2)no1 (stereo unspecified)
2. CN(C)CCCNc1c2ccccc2nc2ccccc12

Response line:
1. 213
2. 190

* * *

- Test system: Plasmodium falciparum
- test.description: MMV: 3H-Hyoxanthine uptake assay; RPMI 1640 (Invitrogen cat#11875-093) with Sodium Bicarbonate (NaHCO3) […].
- Type: functional, organism-based
- test.conditions: 3D7
Consider the following compounds; for each one, report its pIC50.
One number for each entry, as −log10 of the molar value.

Solved entries:
CN1CCN(c2ccc(Nc3c4ccccc4nc4ccccc34)cc2)CC1: 7.01
Cc1ccc(-c2cc3nc4c(c(O)n3n2)CCCC4)cc1: 6.05
CNCCCNc1ccnc2cc(Cl)ccc12: 7.40

For each entry beneath this line, provide reported pIC50.
1. CCN(CC)CCNc1ncnc2c1[nH]c1ccc(Cl)cc12
2. CCC(c1ccccc1)c1nn2c(-c3cccs3)nnc2s1 (stereo not drawn)

Response line:
6.49
6.82

For each entry beneath this line, provide reported pIC50.
1. COc1ccc(-c2c(C)nn3c(N)c(C#N)cnc23)cc1OC
2. O=C(NCC(c1ccsc1)N1CCCCCC1)c1ccc(C(F)(F)F)cc1 (stereo not drawn)
3. COc1ccccc1CNC(=O)CCn1c(=O)[nH]c2ccsc2c1=O
4. CN(C)c1ccc(C=Cc2nc(=O)c3ccccc3o2)cc1
5. CC1CN(C(=O)c2sc3ccccc3c2Cl)CC(C)O1 (stereo not drawn)
6. c1ccc2cc3c(Nc4ccc(N5CCOCC5)cc4)ccnc3cc2c1
7. Cc1ccc(Nc2nc(NCCO)c3ccccc3n2)cc1C
8. CCOc1cc2c(cc1OCC)C(c1cc(OC)c(O)cc1Cl)NCC2 (stereo not drawn)

Response line:
6.48
6.37
6.44
6.44
7.14
5.84
6.73
6.13

* * *

- System: Plasmodium falciparum
- test.description: MMV: Modified 3H-Hyoxanthine uptake assay; RPMI 1640 (Invitrogen cat#23400-013) without Sodium Bicarbonate (NaHCO3).
- Type: functional, organism-based
- test.conditions: 3D7
Consider the following compounds; for each one, report its log10(IC50).
On a log10 scale: recorded IC50, unit µM.

Solved entries:
Cc1ccc(-c2cc3nc4c(c(O)n3n2)CCCC4)cc1: 0.10
CC1CN(C(=O)c2sc3ccccc3c2Cl)CC(C)O1 (configuration not stated): -1.15
Oc1ccccc1CNCC12CC3CC(CC(C3)C1)C2: -0.92
CN(C)c1ccc(C=Cc2nc(=O)c3ccccc3o2)cc1: -0.53
COc1ccc(-c2nc(NC(=O)CS(=O)(=O)c3ccc(F)cc3)sc2C)cc1: -0.33
COc1ccc(-c2c(C)nn3c(N)c(C#N)cnc23)cc1OC: -0.34
CN(C)CCCNc1c2ccccc2nc2ccccc12: -0.23
CN1CCN(c2ccc(Nc3c4ccccc4nc4ccccc34)cc2)CC1: -0.57
c1ccc(Cn2c(N=Nc3c(Nc4ccccc4)ccc4ccccc34)nc3ccccc32)cc1: -1.19

# ---- query compound ----
Note to self: log10(IC50) recorded for Cc1cc(NCCN2CCCCC2)c2ccc3ccccc3c2n1 was -0.66

* * *

Consider the following molecules; for each one, report its pIC50.
- Test system: Plasmodium falciparum
- test.description: MMV: 3H-Hyoxanthine uptake assay; RPMI 1640 (Invitrogen cat#11875-093) with Sodium Bicarbonate (NaHCO3) […].
- Format: functional, organism-based
- test.conditions: 3D7
Answers are plain numbers, as −log10 of the molar value.

CCn1c(CN2CCN(Cc3ccccc3)CC2)nc2cc(NC(=O)c3cccs3)ccc21: 6.76
CCN1CCN(Cc2ccc(NC(=O)c3cc4ccc5cccnc5c4[nH]3)cc2)CC1: 6.24
COc1cccc(NC(=O)[C@H](C(C)C)n2c(=O)[nH]c3ccccc3c2=O)c1: 6.70
Cc1cc(C)cc(Nc2cc(C)nc3nc(C(F)(F)F)nn23)c1: 7.23
Cc1cccc(Nc2nc(N)c3ccccc3n2)c1: 6.55
Cc1cc(C)c2c(c1)OCN(Cc1ccccc1Cl)C2: 6.56
Cc1cc(Nc2ccc(Cl)cc2)n2nc(C(F)(F)F)nc2n1: 6.95
COc1ccc2c(=O)cc(C(Cl)(Cl)Cl)oc2c1: 6.03

For each entry beneath this line, provide reported pIC50.
1. CCc1ccc(Nc2cc(C)c3ccc(O)cc3n2)cc1
2. CCc1c(C)c(=N)c2ccccc2n1C

Response line:
[6.77, 6.37]

CCCN(CCC)CC(O)COc1ccccc1C(=O)Nc1ccccc1 (stereo unspecified) on Plasmodium falciparum gives pIC50 = 6.50

* * *

- System: Plasmodium falciparum
- test.description: MMV: Modified 3H-Hyoxanthine uptake assay; RPMI 1640 (Invitrogen cat#23400-013) without Sodium Bicarbonate (NaHCO3).
- Format: functional, organism-based
- test.conditions: 3D7
property.measured: IC50

Solved entries:
CCOc1cc2c(cc1OCC)C(c1cc(OC)c(O)cc1Cl)NCC2 (stereo not drawn): 982 nM
CSC1=NC(=Nc2c(C)cccc2C)C2(CCC(C(C)(C)C)CC2)N1c1ccc(Cl)cc1 (stereo not drawn): > 1000 nM
O=C(NCC(c1ccsc1)N1CCCCCC1)c1ccc(C(F)(F)F)cc1 (stereo not drawn): 1120 nM
O=C(O)C1Cc2c([nH]c3ccccc23)C(c2ccc(Cl)cc2Cl)N1 (stereo not drawn): > 1000 nM
CCOC(=O)C1=C(c2ccccc2)N=c2sc(=Cc3cc(C)n(-c4ccc(F)cc4)c3C)c(=O)n2C1c1cccc(OC)c1OC (stereo not drawn): > 1000 nM
CCCc1c(CC)c(=N)c2ccccc2n1C: 355 nM
COc1ccc(C(=O)Nc2nonc2-c2ccc(OC)c(OC)c2)cc1Cl: > 1000 nM
COc1ccccc1CNC(=O)CCn1c(=O)[nH]c2ccsc2c1=O: 432 nM

For each entry beneath this line, provide reported IC50.
1. CCN1CCCC1CNc1[nH]cnc2c3cc(Cl)ccc3nc1-2 (stereo not drawn)
2. CCOC(=O)c1cnc2ccc(CC)cc2c1O
3. CCN(CC)CCNc1ccnc2cc(Cl)ccc12
4. CNCCCNc1ccnc2cc(Cl)ccc12

Response line:
1: > 1000 nM; 2: 408 nM; 3: 94 nM; 4: 155 nM

For each entry beneath this line, provide reported IC50.
1. Cc1ccc(N2C(=O)C3C(C2=O)C2(c4ccccc4)C(=O)C3(c3ccccc3)C(c3ccccc3)=C2c2ccccc2)cc1 (stereo not drawn)
2. CCCCCCOC(=O)C1=C(C)NC(=O)NC1c1ccccc1F (stereo not drawn)
3. CCOC(=O)c1c(C)n(-c2ccc(Cl)cc2)c2ccc(OC(=O)C=Cc3ccccc3)cc12
4. Cc1cccc(Nc2nc(N)c3ccccc3n2)c1
5. CCN(CC)CCNc1ncnc2c1[nH]c1ccc(Cl)cc12
6. Cc1cc(C)cc(Nc2cc(C)nc3nc(C(F)(F)F)nn23)c1
7. COc1ccc(-c2nc3cc(Cc4ccc5[nH]c(-c6ccc(OC)cc6)nc5c4)ccc3[nH]2)cc1

Response line:
1. > 1000 nM
2. > 1000 nM
3. > 1000 nM
4. 332 nM
5. 851 nM
6. 132 nM
7. > 1000 nM

* * *

- Tested on: Plasmodium falciparum
- test.description: MMV: 3H-Hyoxanthine uptake assay; RPMI 1640 (Invitrogen cat#11875-093) with Sodium Bicarbonate (NaHCO3) […].
- Format: functional, organism-based
- test.conditions: 3D7
property.measured: IC50 (nM)
Give bare numbers, in nM.

Solved entries:
CCCc1c(CC)c(=N)c2ccccc2n1C: 211
Cc1cc(NCCN2CCCCC2)c2ccc3ccccc3c2n1: 127
COc1ccc(-c2nc(NC(=O)CS(=O)(=O)c3ccc(F)cc3)sc2C)cc1: 192
CCC1(C)CC(CCNCc2ccccc2O)(c2ccc(C)cc2)CCO1 (stereo not given): 266
COc1ccc2c(c1)OC(O)(C(F)(F)C(F)(F)F)CC2=O (stereo not given): 246

For each entry beneath this line, provide reported IC50.
1. c1ccc(Cn2c(N=Nc3c(Nc4ccccc4)ccc4ccccc34)nc3ccccc32)cc1
2. CCOC(=O)c1cnc2ccc(CC)cc2c1O

Response line:
[125, 301]
